- Study system: human TLR7 (Homo sapiens)
- Sequence (Q9NYK1 27-1049): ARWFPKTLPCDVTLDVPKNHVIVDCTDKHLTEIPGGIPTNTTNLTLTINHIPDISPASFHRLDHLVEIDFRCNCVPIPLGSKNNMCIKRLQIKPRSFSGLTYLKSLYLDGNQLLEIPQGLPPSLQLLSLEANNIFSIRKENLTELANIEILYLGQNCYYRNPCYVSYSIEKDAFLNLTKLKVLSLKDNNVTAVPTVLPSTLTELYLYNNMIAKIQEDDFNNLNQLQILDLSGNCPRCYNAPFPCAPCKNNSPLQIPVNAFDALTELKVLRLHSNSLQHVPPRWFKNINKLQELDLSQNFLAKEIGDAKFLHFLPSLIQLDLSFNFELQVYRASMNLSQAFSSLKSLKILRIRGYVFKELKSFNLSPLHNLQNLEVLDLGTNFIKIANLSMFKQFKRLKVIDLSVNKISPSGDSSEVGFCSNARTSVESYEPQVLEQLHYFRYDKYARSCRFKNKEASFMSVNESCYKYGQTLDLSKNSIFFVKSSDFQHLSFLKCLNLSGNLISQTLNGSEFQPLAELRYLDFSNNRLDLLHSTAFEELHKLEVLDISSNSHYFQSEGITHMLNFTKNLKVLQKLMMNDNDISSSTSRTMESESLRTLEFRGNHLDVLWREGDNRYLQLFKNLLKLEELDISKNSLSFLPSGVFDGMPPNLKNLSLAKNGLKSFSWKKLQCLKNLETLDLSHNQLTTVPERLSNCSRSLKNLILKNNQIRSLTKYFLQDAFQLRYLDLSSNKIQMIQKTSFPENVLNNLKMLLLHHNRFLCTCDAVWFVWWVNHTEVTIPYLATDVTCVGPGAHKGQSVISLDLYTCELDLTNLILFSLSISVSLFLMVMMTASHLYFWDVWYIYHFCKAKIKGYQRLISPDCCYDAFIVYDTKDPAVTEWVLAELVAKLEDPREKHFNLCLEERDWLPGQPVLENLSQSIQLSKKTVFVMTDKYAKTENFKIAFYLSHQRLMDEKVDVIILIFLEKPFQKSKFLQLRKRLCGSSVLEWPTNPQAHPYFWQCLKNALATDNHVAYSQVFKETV
- Assay details: Human TLR7 agonist (reporter) activity assay, HEK-Blue TLR7 cells, SEAP reporter
- Settings: 18 h treatment, average where assay was performed multiple times, read-out: hTLR7 Agonism EC50
pEC50: −log10 of the molar value.
Attribute measured: pEC50

molecule="COc1cc(CN2CCC(S(C)(=O)=O)CC2)ccc1Cn1ncc2nc(N)nc(NCc3cc(C)on3)c21 [Compound 111]" number=6.75
molecule="COc1cc(CNC2CCOCC2)ccc1Cn1ncc2nc(N)nc(N[C@H](CO)CC3CC3)c21 [Compound 108]" number=6.47
molecule="COc1cc(CNC2CCOCC2)ccc1Cn1nc(C)c2nc(N)nc(NCc3cc(C)on3)c21 [Compound 112]" number=7.02
molecule="COc1cc(CN2CCN(C)CC2)ccc1Cn1nc(C)c2nc(N)nc(NCc3noc(C)n3)c21 [Compound 134]" number=6.80
molecule="COc1cc(CN2CCN(CCO)CC2)ccc1Cn1nc(C)c2nc(N)nc(NCc3noc(C)n3)c21 [Compound 132]" number=6.37
